biological target: rhCatC (Homo sapiens (Human)); experiment: In vitro enzyme activity experiment of rhCatC (AMC fluorescence assay); type: biochemical; conditions: rhCatC enzyme, substrate H-Gly-Arg-AMC; read-out: Biological activity IC50
Sequence (P53634 25-134): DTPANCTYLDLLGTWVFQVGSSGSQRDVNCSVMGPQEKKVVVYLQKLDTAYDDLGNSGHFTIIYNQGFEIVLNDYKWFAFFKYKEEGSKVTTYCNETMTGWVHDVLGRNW
Sequence (P53634 231-394): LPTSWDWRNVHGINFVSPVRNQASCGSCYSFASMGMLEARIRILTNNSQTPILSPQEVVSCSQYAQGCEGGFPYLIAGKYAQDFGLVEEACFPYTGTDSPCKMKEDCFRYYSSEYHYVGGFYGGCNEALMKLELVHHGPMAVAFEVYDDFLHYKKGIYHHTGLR
Sequence (P53634 395-463): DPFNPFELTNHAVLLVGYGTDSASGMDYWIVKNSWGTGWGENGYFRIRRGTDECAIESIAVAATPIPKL
Each item that follows carries a reported IC50.
assayReadout: IC50 (nM)

INSERT INTO measurements (molecule, assayreadout, reading) VALUES
  ('N#C[C@H](Cc1ccc2c(c1)OCc1cc(F)c(F)cc1-2)NC(=O)C1(N)CCOCC1 [Compound 17]', 'IC50', 5.7),
  ('N#Cc1ccc2c(c1)-c1cc(F)c(C[C@@H](C#N)NC(=O)[C@@H]3CNCCCO3)cc1OC2 [Compound 32]', 'IC50', 13),
  ('N#Cc1ccc2c(c1)COc1cc(C[C@@H](C#N)NC(=O)[C@@H]3CNCCCO3)c(F)cc1-2 [Compound 14]', 'IC50', 5.31),
  ('N#Cc1ccc(N2Cc3cc(C[C@@H](C#N)NC(=O)C4(N)CCOCC4)ccc3C2=O)cc1 [Compound 45]', 'IC50', 72);
